Compiled record: log10(Ki) values for 5-hydroxytryptamine receptor 1A (Homo sapiens, UniProt P08908) across several sources.
Field: value | Transform: log10 | Quantity: Ki | Unit: nM

// below: answered compounds
COMPOUND	TARGET DESC	log10(Ki)
O=S(=O)(c1cccc2ncccc12)N1CCC(CCN2CCN(c3ccc(F)cc3)CC2)CC1	5-hydroxytryptamine receptor 1A (Homo sapiens, UniProt P08908)	2.88
O=S(=O)(NC1CCN(CCOc2ccccc2-c2ccccc2)C1)c1cc(F)ccc1F (stereo not given)	5-hydroxytryptamine receptor 1A (Homo sapiens, UniProt P08908)	1.91
CN1CCC(c2c[nH]c3ccc(NC(=O)c4ccc(F)cc4)cc23)CC1	5-hydroxytryptamine receptor 1A (Homo sapiens, UniProt P08908)	1.34
O=C(Nc1cccc(Cl)c1)NC1CCN(CCOc2ccccc2-c2ccccc2)CC1	5-hydroxytryptamine receptor 1A (Homo sapiens, UniProt P08908)	2.86
O=C(CCNCc1ccccc1)NCc1ccccc1	5-hydroxytryptamine receptor 1A (Homo sapiens, UniProt P08908)	3.57

Record log10(Ki) for all entries; do not skip any.
1. Oc1nc2cccc(N3CCN(Cc4cccc(-c5ccc(F)cc5)c4)CC3)c2o1
2. Cc1ccc(C(=O)Nc2ccc3[nH]cc(C4CCN(C)CC4)c3n2)cc1

output:
[1.15, 1.48]

Kindly give each listed record's log10(Ki).
1. CCCCC(Oc1cc(Cl)cc(Cl)c1)c1nc(Nc2ccccc2)nc(N2CCN(C)CC2)n1 (stereo not given)
2. O=S1(=O)c2cccc3cccc(c23)N1CCCCCCN1CCN(c2cccc(Cl)c2)CC1
3. O=C1COc2c(cccc2N2CCN(Cc3cccc(-c4ccccc4)c3)CC2)N1
4. COc1ccccc1OCCNCC1COC(c2ccccc2)(c2ccccc2)O1 (racemic)
5. O=C(CCN1CCN(c2ccccc2)CC1)N1CCN(c2ccccc2)CC1
6. NC(=O)c1ccccc1OCCCN1CCN(c2ccccc2)CC1
7. COc1ccccc1N1CCN(CCn2c(=O)[nH]c3[nH]c(-c4ccccc4C)cc3c2=O)CC1

output:
1. 5.16
2. 1.66
3. 1.69
4. -0.22
5. 2.43
6. 2.16
7. 2.47

Answer for every listed entry: what is its log10(Ki)? The entries follow.
1. Cc1cc2c(OC[C@@H](O)CN3CC[C@@H](c4cccc5occc45)C[C@@H]3C)cccc2[nH]1
2. O=S(=O)(N[C@H]1CCN(CCOc2ccccc2-c2ccccc2)C1)c1ccc(F)cc1
3. COc1cccc(CCc2ccccc2OCCN2CCN(c3cccc(C(F)(F)F)c3)CC2)c1
4. CC1CN(c2ccccc2[N+](=O)[O-])CC(C)N1CCN1C(=O)CC2(CCCC2)CC1=O (stereo not given)
5. COc1ccccc1OCCNC[C@H]1OCCO[C@H]1c1ccccc1 (relative stereo)
6. COc1cccc([N+](=O)[O-])c1OCCNCCOc1ccccc1OCc1ccccc1

output:
[0.09, 1.51, 3.15, 2.60, 1.31, 1.20]

* * *

// compounds with pKi on 5-hydroxytryptamine receptor 1A (Homo sapiens, UniProt P08908), multi-source literature
Answers are plain numbers, as −log10 of the molar value.

Reference set (3 entries):
COMPOUND	TARGET DESC	pKi
O=C(NCCCCN1CCN(c2ccccn2)CC1)c1ccc2ccccc2n1	5-hydroxytryptamine receptor 1A (Homo sapiens, UniProt P08908)	7.62
COc1ccccc1N1CCN(CCCCNC(=O)[C@@H]2CCCN2C(=O)C23CC4CC(CC(C4)C2)C3)CC1	5-hydroxytryptamine receptor 1A (Homo sapiens, UniProt P08908)	8.40
CC(=O)Nc1ccc(OCCCN2CCC(c3noc4cc(F)ccc34)CC2)cc1	5-hydroxytryptamine receptor 1A (Homo sapiens, UniProt P08908)	8.46

I need pKi for every entry listed below, if you could help.
1. Cc1ccc2c(OC3CCN(CCc4ccc5c(c4)NC(=O)CO5)CC3)cccc2n1
2. O=C1c2cccc3cccc(c23)N1CCCCCCN1CCN(c2cccc(C(F)(F)F)c2)CC1
3. CN1CCC(c2c[nH]c3ccc(NC(=O)C4CCCCC4)nc23)CC1
4. COc1ccccc1N1CCN(CCCn2cc(CCN3CCc4cc(O)c(O)cc4C(c4cccc(C)c4)C3)nn2)CC1 (racemic)
5. Cc1cccc(C#N)c1-c1cccc2c1-c1cccc3c1[C@@H](C2)N(C)CC3 (stereo in doubt; form 2)
6. O=S(=O)(NCC1CCN(CCOc2cccc(F)c2)CC1)c1cccs1

output:
1. 6.50
2. 7.27
3. 6.18
4. 6.34
5. 6.85
6. 6.08

* * *

# TARGET DESC: 5-hydroxytryptamine receptor 1A (Homo sapiens)
# Sequence (P08908 whole entry): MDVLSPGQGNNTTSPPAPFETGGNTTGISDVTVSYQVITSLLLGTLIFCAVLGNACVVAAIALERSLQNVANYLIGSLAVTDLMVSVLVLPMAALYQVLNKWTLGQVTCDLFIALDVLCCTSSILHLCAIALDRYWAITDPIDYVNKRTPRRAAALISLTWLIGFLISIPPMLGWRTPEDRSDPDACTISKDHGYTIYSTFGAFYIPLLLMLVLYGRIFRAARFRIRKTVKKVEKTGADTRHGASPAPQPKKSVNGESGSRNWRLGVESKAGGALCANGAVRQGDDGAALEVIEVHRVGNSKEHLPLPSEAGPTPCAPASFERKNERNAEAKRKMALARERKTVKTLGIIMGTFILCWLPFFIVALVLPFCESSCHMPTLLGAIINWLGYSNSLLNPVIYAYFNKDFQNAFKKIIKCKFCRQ
From various publications: Ki for 5-hydroxytryptamine receptor 1A (Homo sapiens).
One threshold, 200 nM, splits the recorded Ki values: lower ones are class 1, equal or higher ones are class 0.

input: # check: Ki < 200 nM for O=C(NC1CCc2ccc(CCN3CCN(c4nsc5ccccc45)CC3)cc21)c1ccc(Cl)cc1 (stereo not drawn)
output: class 1

input: Regarding Cc1cc2c(OC[C@H](O)CN3CC[C@@H](c4ccc5sccc5c4)C[C@@H]3C)cccc2[nH]1 , kindly confirm whether its Ki is beneath 200 nM.
output: class 1

input: In the record for c1ccc(CC2CCN(CC3COC4(CCCCC4)O3)CC2)cc1 (stereo not drawn) , is Ki less than 200 nM?
output: class 1

input: Regarding O=S(=O)(c1ccc2cc[nH]c2c1)N1CCC[C@@H]1CCN1CCC(Oc2ccc(Cl)cc2)CC1 , kindly confirm whether its Ki is beneath 200 nM.
output: class 0

* * *

# TARGET DESC: 5-hydroxytryptamine receptor 1A (Homo sapiens, UniProt P08908)
# Sequence (P08908 whole entry): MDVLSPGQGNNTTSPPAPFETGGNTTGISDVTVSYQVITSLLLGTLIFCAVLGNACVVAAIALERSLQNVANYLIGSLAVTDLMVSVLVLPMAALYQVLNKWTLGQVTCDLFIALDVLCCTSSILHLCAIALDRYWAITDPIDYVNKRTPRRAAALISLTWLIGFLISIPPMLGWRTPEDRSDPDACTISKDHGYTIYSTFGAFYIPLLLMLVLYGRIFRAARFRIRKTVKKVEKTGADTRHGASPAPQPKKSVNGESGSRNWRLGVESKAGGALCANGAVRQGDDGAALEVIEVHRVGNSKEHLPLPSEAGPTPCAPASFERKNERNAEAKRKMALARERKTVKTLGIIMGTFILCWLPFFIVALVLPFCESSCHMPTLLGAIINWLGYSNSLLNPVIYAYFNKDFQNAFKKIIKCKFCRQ
Ok so here's the combined literature set: pKi for 5-hydroxytryptamine receptor 1A (Homo sapiens, UniProt P08908).
Answers are plain numbers, as −log10 of the molar value.

Examples with answers:
COMPOUND	TARGET DESC	MEASUREMENT
OC(CNCCCCCCN1CC[C@H](c2ccc(F)cc2)[C@@H](COc2ccc3c(c2)OCO3)C1)COc1cccc2ccccc12 (some centres not stated)	5-hydroxytryptamine receptor 1A (Homo sapiens, UniProt P08908)	6.81
O=C1NCCc2ccc3c(c21)CC(N(CCCc1c[nH]c2ccc(F)cc12)C1CCC1)CO3 (racemic)	5-hydroxytryptamine receptor 1A (Homo sapiens, UniProt P08908)	7.02
Cc1ccc2c(OCCN3CCC(Cc4ccc5c(c4)NC(=O)CO5)CC3)cc(C#N)cc2n1	5-hydroxytryptamine receptor 1A (Homo sapiens, UniProt P08908)	7.70
COc1ccccc1N1CCN(Cc2cn(-c3cccc4ccccc34)c3ccccc23)CC1	5-hydroxytryptamine receptor 1A (Homo sapiens, UniProt P08908)	6.15
CCN(CC)CCCc1cn(CCCN2CCN(c3ccccc3OC)CC2)nn1	5-hydroxytryptamine receptor 1A (Homo sapiens, UniProt P08908)	6.42
Cc1nc2c(N3CCN([C@H]4CC[C@@H](c5c[nH]c6ccccc65)CC4)CC3)cccc2[nH]1	5-hydroxytryptamine receptor 1A (Homo sapiens, UniProt P08908)	7.97

Please look at the following compound next.
input: Read off the recorded pKi for Cc1sc2nc(CCCCCN3CCC(Cc4ccccc4)CC3)[nH]c(=O)c2c1C
output: 6.83
